system: KM12 colon; assay: NCI-60 one-dose screen, 48 h (100 = growth as untreated, 0 = no growth, -100 = all killed); details: 10 µM unless noted
The panel holds about 83,000 compounds, 20% with a hit somewhere; the sample as a whole holds those more often.
What growth was measured for each of the following?
Give bare numbers, in %.

Some solved cases for reference:
{"columns": ["smilesRepr", "growth / %"],
 "data": [
  ["CSc1ncc(C)c(Nc2ccc(Cl)cc2)n1", 100],
  ["O=c1[nH]c(NCc2nnnn2-c2ccc(Br)cc2)nc2sc3c(c12)CCCC3", 96.1],
  ["COc1ccc(/C=C2\\COc3ccc(O)c(O)c3C2=O)c(OC)c1", 45],
  ["COc1cc2c(O)n(CCCn3ccnc3)c3c4cnc5cccc(c(=O)c3c2cc1OC)c54", 61],
  ["CCn1c(Sc2nnc(NC(=O)CSC(=S)N3CCCCC3)s2)nc2c1c(=O)n(C)c(=O)n2C", 64.2],
  ["CC/C=C/[C@@H]1C=C[C@@H]2CCC[C@H]2[C@@H]1CC[C@H](O)[C@H](C)N", -85.1]
]}

I'm hoping you can list growth for every compound here, please.
1. Clc1ccc(-c2cn(-c3ccccc3)c(-c3ccccc3)n2)cc1
2. CCCCn1c(=O)[nH]c(N)c(C(c2ccc(F)cc2)c2c(N)[nH]c(=O)n(CCCC)c2=O)c1=O
3. C=C(Cl)COC(=O)C(C)(C)O
4. CS(=O)(=O)c1ccc(-c2[nH]c3ccc(F)cc3c2/C=N/O)cc1
5. N#Cc1c(NC(=O)c2ccccc2I)sc2c1CCCC2

Data returned:
1: 53.6; 2: 61.3; 3: 102; 4: 101; 5: 34.2

====

test system: NCI-H226 lung; assay: NCI-60 one-dose screen, 48 h (100 = growth as untreated, 0 = no growth, -100 = all killed); conditions: 10 µM unless noted
About 83,000 compounds went through this panel and 20% of them were active in at least one assay; those are over-represented in the sample as a whole.
growth strictly less than 50% = T. Otherwise F.

Would you please look over these solved cases?
{"columns": ["compound", "assignedLabel"],
 "data": [
  ["COc1cc(/C=C/c2nc(Nc3ccc(S(=O)(=O)Nc4cc(C)on4)cc3)c3ccccc3n2)ccc1O", "F"],
  ["CNC(=O)c1cc(Oc2ccc3nc(NC(=O)Nc4cc(C(F)(F)F)cc(C(F)(F)F)c4)sc3c2)ccn1", "T"],
  ["CN(C)c1ccc(/C=N/NC(=O)COc2cc(=O)n(C)c3ccccc23)cc1", "F"]
]}

Data request: Check if growth falls below 50% for CCOc1ccc2nc(-c3cccc(OCC(=O)NC(C)C)c3)nc(Nc3ccc(-c4cn[nH]c4)cc3)c2c1 .
Data returned: T

====

system: SK-MEL-28 melanoma; assay: NCI-60 one-dose screen, 48 h; settings: 10 µM unless noted
This is part of a sample that, as a whole, favours compounds with a hit. Of some 83,000 tested, about 20% had one in any assay. Calls of active or inactive are those of the source. How the source made its calls: active means growth percent below 10; inactive means the rest.
Mark one answer only. Choices: active, inactive

Some entries whose results are on file:
{"columns": ["compound", "assignedLabel"],
 "data": [
  ["CC(C)n1nc(C#Cc2cccc(NC(=O)c3cccc(C(F)(F)F)c3)c2)c2c(N)ncnc21", "active"],
  ["N#Cc1c(-c2ccccc2)nc(SCC2CO2)nc1N1CCOCC1 (centres undefined)", "inactive"],
  ["Fc1ccc(Nc2nc3nonc3nc2Nc2ccc(F)cc2)cc1", "active"],
  ["COc1c(C)cnc(CSc2nc(-c3ccc(C)cc3)cn2-c2ccc(Cl)cc2)c1C", "inactive"],
  ["Nc1ccn(C2OC(F)(CO)C(O)C2F)c(=O)n1 (centres undefined)", "inactive"]
]}

Data request: Please share the test call associated with [2H]c1nc(Nc2ncc(F)c(-c3cc(F)c4nc(C)n(C(C)C)c4c3)n2)c([2H])c([2H])c1CN1CCN(C([2H])([2H])C([2H])([2H])[2H])CC1 .
Data returned: inactive

Data request: Please state the recorded outcome for this compound: Cc1cc2c(F)c(Oc3ncnc(Nc4ccc(N5C[C@@H](C)N[C@@H](C)C5)cc4)c3C#N)cc(F)c2[nH]1
Data returned: active

Data request: Can you look up the reported call for Cc1cc(-c2ccc(N(C)C)cc2)c2sc(=O)[nH]c2n1 for me?
Data returned: inactive

Data request: Please indicate how the test categorized O=C1C2=C(CCN(Cc3ccccc3)C2)N2CCN=C2N1Cc1ccc(C(F)(F)F)cc1 .
Data returned: inactive
